biological target: HMGB1^RE (Homo sapiens, UniProt P09429); construct: (i) full length: residues 2-215; 6x His (cleaved yes); made in house; host or cells: Escherichia coli BL21; assay: Chemotaxis assay (Boyden chambers): HMGB1^RE-elicited migration of mouse 3T3 fibroblasts; type: cell-based; details: read-out: IC50, inhibition of HMGB1^RE-induced chemotaxis
Sequence (P09429 2-215): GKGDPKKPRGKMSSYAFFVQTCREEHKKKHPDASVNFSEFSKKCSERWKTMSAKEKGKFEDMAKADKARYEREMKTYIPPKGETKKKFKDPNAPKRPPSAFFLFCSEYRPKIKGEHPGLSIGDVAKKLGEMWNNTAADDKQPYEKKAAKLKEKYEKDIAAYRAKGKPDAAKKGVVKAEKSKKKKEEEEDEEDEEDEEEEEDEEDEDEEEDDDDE

{"Compound Structure String": "O=C(O)c1ccccc1O", "IC50": "3.26 to 4.34 µM"}

---

Biological target: HMGB1^RE (Homo sapiens, UniProt P09429)
Construct: (i) full length: residues 2-215; 6x His (cleaved yes); made in house; host or cells: Escherichia coli BL21
Assay: Chemotaxis assay (Boyden chambers): HMGB1^RE-elicited migration of mouse 3T3 fibroblasts
Format: cell-based
Conditions: NIH/3T3 fibroblasts, 1 nM HMGB1^RE; read-out: IC50, inhibition of chemo-attractant activity of HMGB1^RE
Procedure: Cell migration was assayed using Boyden chambers (Venereau et al., 2012). The downside of PVP-free polycarbonate filters (8 μm pores; Millipore) was coated with 50 μg/ml fibronectin (Sigma). Serum-free DMEM (negative control), DMEM containing 0.1 nM fMLP (positive control; Sigma), or DMEM containing 1 nM HMGB1^RE or HMGB1^SS were placed in the lower chamber, together with different concentrations of SA (Sigma). […]
pIC50: −log10 of the molar value.
Measurement Label: pIC50

{"Compound Structure String": "COc1cc(CCc2ccccc2)c(C(=O)O)c(O)c1C/C=C(\\C)CCC=C(C)C", "Measurement Label": "pIC50", "Endpoint Value": "~7.22"}
